Biological target: T1, His-MIF (His-tag/T7 gene 10 leader/Xpress-MIF fusion) (UniProt P14174 P14174:1-115)
T1 chain: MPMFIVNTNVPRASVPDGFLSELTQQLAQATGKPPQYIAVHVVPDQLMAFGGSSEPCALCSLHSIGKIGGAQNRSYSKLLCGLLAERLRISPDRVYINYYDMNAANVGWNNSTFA
Assay: SPR; data not shown
Conditions: MIF 115 aa; ATGen
property-label: binding result

Example cases with answers are listed next.
binder	binding result
X region SEQ 2310 (ssRNA, 3' A20 tail for capture) RNA: GGGACGCUCACGUACGCUCAUGGUGGAUUGGUGCAUCUAUGUCUUCUUACUUGUUAUCAGUGCCUGGACGUGCAGU	binds
X region SEQ 2327 (ssRNA, 3' A20 tail for capture) RNA: GGGACGCUCACGUACGCUCAAGACUCCUGUGUUUCGGGUGUACUGUCACGAUUCGUUGUCUCAGUGCCUGGACGUGCAGU	binds
X region SEQ 2323 (ssRNA, 3' A20 tail for capture) RNA: GGGACGCUCACGUACGCUCACUACAAUAAUAUUACCCCUUGUUUUCGUUUAGUCCGGGUUUCAGUGCCUGGACGUGCAGU	binds
X region SEQ 2315 (ssRNA, 3' A20 tail for capture) RNA: GGGACGCUCACGUACGCUCAACCCGCGACUAGGUUUUCCUGGCGACCGUCCGGUAGUGUCAGUGCCUGGACGUGCAGU	binds

For X region SEQ 2334 (ssRNA, 3' A20 tail for capture) RNA: GGGACGCUCACGUACGCUCACACCUAGAGCCUGAACUGCCUAAGCGCUGAUCGGCAUUUAUCAGUGCCUGGACGUGCAGU , write its binding result.
binds

Look up and report measured binding result for this entry: X region SEQ 2346 (ssRNA, 3' A20 tail for capture) RNA: GGGACGCUCACGUACGCUCAUGUUCCGGGCCGACUGGCUGUUAGAGAUCUCUGAUGUAGGUCAGUGCCUGGACGUGCAGU
binds

Note down binding result recorded for X region SEQ 2320 (ssRNA, 3' A20 tail for capture) RNA: GGGACGCUCACGUACGCUCAGACGUUCAAGUAAAUUGGCCCUAUAUUUCGUUAUAGUAUGUCAGUGCCUGGACGUGCAGU
binds
